Source listed as the supplement of paper PMC10567573.

B1: CCNC (parent)
chain: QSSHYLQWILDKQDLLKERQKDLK

Variants of: B1
protocol: protein stability index of a GFP-peptide fusion (GPS, HEK-293T) (PSI 1-6); higher = more stable;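 note: lentivirally expressed fusions sorted by FACS into six bins by GFP to DsRed ratio, PSI derived from sequencing read proportions per bin multiplied by bin number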
conditions: c terminus: a fixed tail appended
Parameter threshold = 3. Response is fulfilled when protein stability index meets or exceeds it, else not fulfilled.

# count of solved cases: 5
variant-description | assigned-class
H4K | not fulfilled
L15F | not fulfilled
S3E | fulfilled
K21R | fulfilled
K21G | not fulfilled

# input Hi, just wondering whether H4D shows protein stability index of 3 or higher.
# output fulfilled

# input Dear colleague, could you confirm whether S3Q has protein stability index at or above 3?
# output not fulfilled
